Tested on: NCI/ADR-RES ovarian
EXPERIMENTAL PROTOCOL: NCI-60 one-dose screen, 48 h (100 = growth as untreated, 0 = no growth, -100 = all killed)
ASSAY SETUP: 10 µM
The panel holds about 83,000 compounds, 20% with a hit somewhere; the sample as a whole holds those more often.
MEASURED QUANTITY: growth (%)

{"COMPOUND": "O=c1[nH][nH]c(=O)c2cc([N+](=O)[O-])ccc12", "TESTED SYSTEM": "NCI/ADR-RES ovarian", "MEASURED VALUE": 105}
{"COMPOUND": "O=C(Cc1ccc(OCc2ccccc2)cc1)NCc1ccc2c(c1)OCO2", "TESTED SYSTEM": "NCI/ADR-RES ovarian", "MEASURED VALUE": 47.8}
{"COMPOUND": "Cc1cccc(C(=O)N(C(C)C)C(C)C)c1", "TESTED SYSTEM": "NCI/ADR-RES ovarian", "MEASURED VALUE": 102}
{"COMPOUND": "O=C(OCC(O)C1OC(c2ccccc2)OC(COC(=O)c2ccccc2)C1O)c1ccccc1 (stereo unspecified)", "TESTED SYSTEM": "NCI/ADR-RES ovarian", "MEASURED VALUE": 107}
{"COMPOUND": "Nc1nc2c(c(-c3nc(N)nc4c3CCc3ccccc3-4)n1)CCc1ccccc1-2", "TESTED SYSTEM": "NCI/ADR-RES ovarian", "MEASURED VALUE": 101}
{"COMPOUND": "Cc1cc(C)cc(NCCC#N)c1", "TESTED SYSTEM": "NCI/ADR-RES ovarian", "MEASURED VALUE": 110}
{"COMPOUND": "CCOC(=O)C(CCC(C)C)C(=O)OCC", "TESTED SYSTEM": "NCI/ADR-RES ovarian", "MEASURED VALUE": 108}
{"COMPOUND": "COCCOC(=O)c1ccc(C(C)C)cc1", "TESTED SYSTEM": "NCI/ADR-RES ovarian", "MEASURED VALUE": 96}
{"COMPOUND": "COc1cc(/C=C(\\C#N)C(=O)c2ccccc2)ccc1OCc1ccccc1", "TESTED SYSTEM": "NCI/ADR-RES ovarian", "MEASURED VALUE": 98.4}
{"COMPOUND": "C/C(=N\\O)C1(O)CCCCC1", "TESTED SYSTEM": "NCI/ADR-RES ovarian", "MEASURED VALUE": 110}
{"COMPOUND": "COc1ccccc1C1OC2=Nc3cc(C)c(C)cc3NC2C1=O (stereo unspecified)", "TESTED SYSTEM": "NCI/ADR-RES ovarian", "MEASURED VALUE": 61.2}
{"COMPOUND": "O=C(CCl)Nc1ccc2c(c1)C(=O)c1ccc(NC(=O)CCl)cc1C2=O", "TESTED SYSTEM": "NCI/ADR-RES ovarian", "MEASURED VALUE": -53.8}
{"COMPOUND": "CC1(O)OC(COc2ccc(Cl)cc2)COC1O (stereo unspecified)", "TESTED SYSTEM": "NCI/ADR-RES ovarian", "MEASURED VALUE": 103}
{"COMPOUND": "COc1ccc(-c2cc(-c3cc(-c4ccc(OC)cc4)nc(N)n3)nc(N)n2)cc1", "TESTED SYSTEM": "NCI/ADR-RES ovarian", "MEASURED VALUE": 100}
{"COMPOUND": "NC(=S)N/N=C/c1ccc(N)cc1", "TESTED SYSTEM": "NCI/ADR-RES ovarian", "MEASURED VALUE": 102}
{"COMPOUND": "Cc1cccc([N+](=O)[O-])c1Cl", "TESTED SYSTEM": "NCI/ADR-RES ovarian", "MEASURED VALUE": 92.8}
{"COMPOUND": "c1ccc(Sc2ccccc2)cc1", "TESTED SYSTEM": "NCI/ADR-RES ovarian", "MEASURED VALUE": 112}
{"COMPOUND": "CC(=O)OC(OC(C)=O)C1CCCO1 (stereo unspecified)", "TESTED SYSTEM": "NCI/ADR-RES ovarian", "MEASURED VALUE": 94.5}
{"COMPOUND": "CN(C)c1nc2c([nH]1)c(=O)n(C)c(=O)n2C", "TESTED SYSTEM": "NCI/ADR-RES ovarian", "MEASURED VALUE": 106}
{"COMPOUND": "O=C(O)C(c1ccccc1)C(O)c1ccccc1 (stereo unspecified)", "TESTED SYSTEM": "NCI/ADR-RES ovarian", "MEASURED VALUE": 107}
{"COMPOUND": "N#C/C(=C\\c1cc(O)c(O)c(O)c1)C(N)=O", "TESTED SYSTEM": "NCI/ADR-RES ovarian", "MEASURED VALUE": 102}
{"COMPOUND": "CCCCN(CCCC)CCCO", "TESTED SYSTEM": "NCI/ADR-RES ovarian", "MEASURED VALUE": 105}
{"COMPOUND": "c1cc2cccc3c4cccc5cccc(c(c1)c23)c54", "TESTED SYSTEM": "NCI/ADR-RES ovarian", "MEASURED VALUE": 108}
{"COMPOUND": "C#Cc1cccc(NC(=O)c2ccc(Cl)cc2Cl)c1", "TESTED SYSTEM": "NCI/ADR-RES ovarian", "MEASURED VALUE": 104}
{"COMPOUND": "COc1ccc(/C(C#N)=C2C=C/C(=N/O)c3ccccc3\\2)cc1", "TESTED SYSTEM": "NCI/ADR-RES ovarian", "MEASURED VALUE": 15.9}
{"COMPOUND": "CCc1nc(N)nc(N)c1-c1ccc(Cl)cc1", "TESTED SYSTEM": "NCI/ADR-RES ovarian", "MEASURED VALUE": 56.4}
